molecular target: Gag-Pol polyprotein (Human immunodeficiency virus type 1 group M subtype B (isolate HXB2)); assay: RNase H inhibition, HIV 1 Gag Pol polyprotein, FRET biochemical assay, screening (AID 372); settings: HIV-1 RT RNase H, FRET RNA/DNA substrate fluorescence; at 10 µM; hits give high values
In all, about 100,000 compounds went through this assay and about 770 (0.77%) were called active. Only a selection was taken, and actives are over-represented in it overall.
readout: inhibition (%)

CCOC(=O)C1=C(C)N=c2s/c(=C\c3ccc(OC)c(Br)c3)c(=O)n2C1c1ccccc1Cl (stereo not drawn)    29
O=C(Nc1ncc(S(=O)(=O)c2ccc([N+](=O)[O-])cc2)s1)c1ccccc1Cl    54
O=C(Nc1ccc(F)cc1)Nc1nnc(CSCc2ccccc2Cl)s1    23
COc1ccc(C2CC(c3ccc(Cl)cc3)=NN2c2nc(-c3cccc(N4C(=O)c5ccccc5C4=O)c3)cs2)cc1OC (stereo not drawn)    53
O=C(COc1ccc(Cl)cc1Cl)Nc1ccc(-c2ccccc2)cc1    7
O=C(COc1ccc(Cl)cc1Cl)Nc1ccc(-c2nc3ccccc3s2)c(O)c1    27
Cc1cc(=O)[nH]c(N/N=C/c2ccc(O)cc2)n1    2
COC(=O)c1cc(C(=O)NC2CCSC2=O)cc([N+](=O)[O-])c1 (stereo not drawn)    10
Cc1cc(/C=C(\C#N)C(=O)Nc2ccccc2)c(C)n1-c1sc2c(c1C#N)CCCC2    15
CCOC(=O)c1c(-c2ccc(C(C)C)cc2)csc1N    27
N#C/C(=C/c1ccc(Cl)cc1)C(=O)Nc1cccc(Br)c1    15
O=C(/C(=C\c1ccc([N+](=O)[O-])cc1)n1cncn1)c1ccc(Cl)cc1Cl    16
O=C(CCN1C(=O)c2ccccc2C1=O)N1CCN(C/C=C/c2ccccc2)CC1    5
COC(=O)C1=C(C(=O)OC)SC(=C2C(=S)C(C)(C)Nc3ccc(C)cc32)S1    28
COc1ccc(Br)c(C=Nc2cccc3nsnc23)c1O    64
Oc1c(C=Nc2cccc3nsnc23)cc(Br)c2ccccc12    5
Cc1ccccc1OCC(=O)Nc1ccc(O)c(-c2nc3ccccc3s2)c1    14
N#C/C(=C/c1ccc(Cl)cc1)C(=O)Nc1ccc(O)cc1    60
O=C(NNC(=O)c1cccc(C(=O)NNC(=O)c2ccc(Br)cc2)c1)c1ccc(Br)cc1    53
O=C(COc1ccc(Br)cc1Cl)Nc1ccccc1Cl    31
N#C/C(=C/c1cccc(Cl)c1)C(=O)Nc1cccc(Br)c1    12
O=C(COc1ccc(Cl)cc1)Nc1ncc(S(=O)(=O)c2ccc([N+](=O)[O-])cc2)s1    12
Oc1ccc(Br)cc1/C=N/c1c(-c2ccco2)nc2ccccn12    15
Cc1nn(S(=O)(=O)c2ccc([N+](=O)[O-])cc2)c(C)c1Sc1ccc([N+](=O)[O-])cc1    18
N#C/C(=C\c1ccc(OC(=O)c2ccco2)cc1)C(=O)Nc1ccccc1Br    50
CC1=CC(C)(C)N(C(=O)CSc2nc3ccccc3s2)c2cc(C)ccc21    20
COc1ccc(/C=N/NC(=O)c2cc(-c3ccc(Cl)cc3)n[nH]2)cc1    14
CC1(C)Cc2cc3c(=O)[nH]c(=S)[nH]c3nc2CO1    0
CC(C)(C)c1ccc(S(=O)(=O)Nc2ccc(-c3ccc(NS(=O)(=O)c4ccc(C(C)(C)C)cc4)c(Cl)c3)cc2Cl)cc1    23
N#C/C(=C\c1ccc(OC(=O)c2ccc(Br)cc2)cc1)C(=O)Nc1cccc(Cl)c1    55
COc1cc2ccccc2cc1C(=O)Nc1ccc(Br)cc1F    18
O=C(COc1ccc(Br)cc1Cl)Nc1cc(Cl)ccc1Cl    8
O=C(NNC(=O)c1cccc(O)c1)c1ccc(Br)cc1    10
O=C(COc1ccc(Br)cc1)Nc1ncc(S(=O)(=O)c2ccc([N+](=O)[O-])cc2)s1    19
COC(=O)/C=C1\SC(=Nc2ccccc2)NC1=O    6
O=C(NNC(=O)c1cccc(C#Cc2ccccc2)c1)c1ccc(Br)cc1    46
Oc1c(Br)ccc(Cl)c1C=Nc1cccc2nsnc12    8
N#C/C(=C\c1ccccc1)C(=O)Nc1ccccc1Br    9
O=C(COc1ccc(Cl)cc1Cl)Nc1ccc(NC(=O)COc2ccc(Cl)cc2Cl)cc1    52
O=C(CSc1nc2ccc([N+](=O)[O-])cc2s1)c1ccc(Cl)cc1    11
CCc1ccc(-c2nc(-c3ccccn3)no2)cc1    15
Cc1ccc(Cl)cc1NC(=O)CN(CCc1ccccc1)S(=O)(=O)c1ccccc1    16
CCN(CC)CCCCCOc1cc(C)cc(C)c1    17

====

Here, each record is paired with measured inhibition data.
target: Gag-Pol polyprotein (Human immunodeficiency virus type 1 group M subtype B (isolate HXB2)) (UniProt P04585); assay: RNase H inhibition, HIV 1 Gag Pol polyprotein, FRET biochemical assay, screening (AID 372); conditions: HIV-1 RT RNase H, FRET RNA/DNA substrate fluorescence; at 10 µM; hits give high values
The whole screen tested about 100,000 compounds, of which about 770 (0.77%) were called active. What follows is part of a selection rich in actives, with near analogues and random picks from the rest.
readout: inhibition (%)

CCOC(=O)C1=C(C)N=c2s/c(=C\c3ccc(-c4cc(C)c(C)c([N+](=O)[O-])c4)o3)c(=O)n2C1c1ccccc1 (stereo not given)    46
O=C(COc1ccc(Br)cc1Cl)NCc1cccnc1    0
Clc1ccc(C2C=C(c3cccs3)Nc3nnnn32)cc1 (stereo not given)    3
CCOc1cc(C(=S)N2CCCCC2)ccc1O    8
CCOc1ccc(OCCCCOc2ccccc2C)cc1    18
C=CCOC(=O)C1=C(C)NC2=C(C(=O)CCC2)C1c1ccc(OCc2ccccc2)c(OC)c1 (stereo not given)    15
Cc1ccc2cccc(OS(=O)(=O)c3ccc(Cl)cc3C)c2n1    43
Cc1ccc2cccc(OS(=O)(=O)c3ccccc3C)c2n1    58
COc1ccccc1/C=C\C=N\n1c(-c2ccc(Cl)cc2Cl)n[nH]c1=S    34
CCOC(=O)C1=C(C)N=c2s/c(=C\c3ccc(-c4cc(C)c(C)c([N+](=O)[O-])c4)o3)c(=O)n2C1c1ccc(N(C)C)cc1 (stereo not given)    56

====

Quick reference: inhibition of the listed items.
target: Gag-Pol polyprotein (Human immunodeficiency virus type 1 group M subtype B (isolate HXB2)) (UniProt P04585); assay: RNase H inhibition, HIV 1 Gag Pol polyprotein, FRET biochemical assay, screening (AID 372); settings: HIV-1 RT RNase H, FRET RNA/DNA substrate fluorescence; at 10 µM; hits give high values
Out of some 100,000 compounds screened, about 770 (0.77%) were called active. For the sample, actives were picked, then their nearest neighbours and some compounds at random.
readout: inhibition

COc1ccc(-c2n[nH]c(=S)n2N=C/C(Br)=C/c2ccccc2)cc1    21% (inactive)
O=C1N=C(N2CCN(c3ccccc3)CC2)S/C1=C\c1ccc(OCc2ccccc2)cc1    1% (inactive)
Cc1ccc(S(=O)(=O)N2CCC(CN3C(=O)c4cccc5cccc(c45)C3=O)CC2)cc1    25% (inactive)
C=CCOc1ccc(/C=C2/C(=O)NC(=O)N(c3ccccc3F)C2=O)cc1    7% (inactive)
Cc1ccccc1C(=O)Nc1sc2c(c1C(=O)Nc1cccc3ccccc13)CCC2    13% (inactive)
S=C(Nc1ccc2nccnc2c1)Nc1cccc2ccccc12    27% (inactive)
CCOC(=O)C1=C(C)NC(C)=C(C(=O)OC)C1c1ccc([N+](=O)[O-])cc1 (stereo not given)    16% (inactive)
C/C(=N\NC(=O)c1cc(C)[nH]n1)c1ccc(N)cc1    5% (inactive)
Cc1ccc(N(CC(=O)N/N=C/c2cccc(Cl)c2)S(=O)(=O)c2ccc(F)cc2)cc1    13% (inactive)
Cc1ccc(-n2c(C)cc(/C=C(/C#N)C(=O)Nc3ccc(Cl)cc3)c2C)cc1C    8% (inactive)

====

molecular target: Gag-Pol polyprotein (Human immunodeficiency virus type 1 group M subtype B (isolate HXB2)) (UniProt P04585); assay: RNase H inhibition, HIV 1 Gag Pol polyprotein, FRET biochemical assay, screening (AID 372); conditions: HIV-1 RT RNase H, FRET RNA/DNA substrate fluorescence; at 10 µM
Hit rate of the full screen: of about 100,000 compounds, about 770 (0.77%) were called active. Cut-off read from the data, not from the text of the source: active = inhibition above about 50%; inactive = the rest. Shown is part of a subset that was picked to be rich in actives.
Classes used: true (1) (active), false (0) (inactive)

COc1ccc(C(=O)NC(=S)Nc2cc(-c3nc4ccccc4[nH]3)ccc2C)cc1[N+](=O)[O-]    false (0)
Cc1ccc2oc(-c3ccc(C)c(NC(=O)COc4ccccc4C)c3)nc2c1    false (0)
Fc1ccc(CN2CCc3c([nH]c4ccccc34)C2)cc1    false (0)
COc1ccc(OC)c(N2C(=O)NC(=O)C(=Cc3cccs3)C2=O)c1    false (0)
O=C(/C=C/c1cccc([N+](=O)[O-])c1)Nc1ccc2nn(-c3ccccc3)nc2c1    false (0)
Cc1ccc([N+](=O)[O-])cc1NC(=O)C1CC1    false (0)
Cc1nn(-c2ccccc2)c2c1C(c1ccc(O)cc1)C(C#N)=C(N)O2 (stereo not given)    false (0)
CC1=NN(c2cccc(C(=O)O)c2)C(=O)/C1=C\c1ccc(-c2ccc([N+](=O)[O-])cc2)o1    false (0)
Cc1ccc(C(=O)Nc2ccc3nn(-c4ccc(Cl)cc4)nc3c2)cc1[N+](=O)[O-]    true (1)
COc1ccc(NC(=O)c2ccc(C)c([N+](=O)[O-])c2)cc1    false (0)
COc1ccc(C(=O)Nc2ccc3nn(-c4ccccc4)nc3c2)cc1[N+](=O)[O-]    false (0)
CC(=O)Nc1ccccc1NC(=O)c1cccc(F)c1    false (0)
O=C(Nc1ccccc1-c1ccccc1)c1ccc2c(c1)C(=O)N(c1ccccc1-c1ccccc1)C2=O    false (0)
CC1=NN(c2ccc(S(N)(=O)=O)cc2)C(=O)/C1=C\c1ccc(-c2ccc([N+](=O)[O-])cc2)o1    true (1)
CC1(C)C(c2ccccc2)=[N+]([O-])C2(CCCCC/C2=N\NC(N)=O)N1O (stereo not given)    false (0)
Cc1ccc(-c2nc3ccccc3o2)cc1NC(=O)COc1ccccc1    false (0)
Cc1ccc(-c2nc3ccccc3o2)cc1NC(=O)COc1ccccc1C    true (1)
Cc1cc(C)n(S(=O)(=O)c2ccc(Cl)c(Cl)c2Cl)n1    false (0)
COc1cc(/C=N/Nc2nc(N3CCOCC3)nc(N3CCOCC3)n2)cc(OC)c1    false (0)
c1ccc(CN2CCN(Cc3ccncc3)CC2)nc1    false (0)
COC(=O)c1c(N)sc2c1CCc1ccccc1-2    false (0)
COc1ccc(OC)c(NC(=O)CN(c2ccc(C(C)C)cc2)S(=O)(=O)c2ccccc2)c1    false (0)
CC(C)(C)C1(O)CC(C(F)(F)F)=NN1C(=O)c1ccc([N+](=O)[O-])cc1 (stereo not given)    false (0)
O=C(NCCCN1CCOCC1)/C(=C/c1ccc(-c2ccc(Cl)cc2)o1)NC(=O)c1ccccc1    false (0)
COc1ccc(CCN(C)C2CC(=O)N(c3ccc(F)cc3)C2=O)cc1OC (stereo not given)    false (0)
N=C1/C(=C/c2ccc(-c3ccccc3Cl)o2)C(=O)N=C2SC(c3ccccc3)=NN12    true (1)
Cc1ccc(C(=O)Nc2ccc3nn(-c4ccc(F)cc4)nc3c2)cc1[N+](=O)[O-]    false (0)
COc1ccc(/C=N/N(C)c2cc(C)nc(-c3ccccc3O)n2)cc1OC    false (0)
CCOc1ccc(C(=O)NC(=S)Nc2ccc3nn(-c4ccccc4)nc3c2)cc1[N+](=O)[O-]    false (0)
Cc1ccc(-c2nc3ccccc3o2)cc1NC(=S)NC(=O)c1ccccc1C    false (0)
CC1=NN(c2ccc(S(N)(=O)=O)cc2)C(=O)/C1=C\c1ccc(-c2ccc(Cl)c(C(=O)OC(C)C)c2)o1    true (1)
Cc1cccc(C2(c3cccc(C)c3)CC2C(=O)Nc2cc([N+](=O)[O-])ccc2O)c1 (stereo not given)    false (0)
Cc1ccc([N+](=O)[O-])cc1NC(=O)COc1ccc(Cl)cc1C    false (0)
O=C(NC(=S)Nc1cc(-c2nc3ccccc3o2)ccc1Cl)c1ccccc1Br    false (0)
CC1=NN(c2ccc(S(N)(=O)=O)cc2)C(=O)/C1=C\c1ccc(-c2ccc(Cl)c(C(=O)O)c2)o1    false (0)
C=CCN(CC=C)CCCCOc1cccc(C)c1    false (0)
CCOc1ccc(C(=O)Nc2ccc(CC)cc2)cc1[N+](=O)[O-]    false (0)
Cc1ccc(-n2nc3cc(C)c(NC(=O)/C=C/c4cccc([N+](=O)[O-])c4)cc3n2)cc1    false (0)
Cc1ccc(-n2nc3ccc(NC(=O)/C=C\c4cccc([N+](=O)[O-])c4)cc3n2)cc1    true (1)
N=C1/C(=C/c2ccc(-c3cc(Cl)ccc3Cl)o2)C(=O)N=C2SC(c3ccccc3)=NN12    false (0)
